# target entity: Catenin beta-1 (Homo sapiens)
# assay comment: Inhibition of beta-catenin transcriptional activity in human A549 cells after 24 hrs by luciferase reporter assay
# Type: cell-based
# Parameters: concentration or dose not given beside the values
readout label: Activity (%)

For orientation, consider the following solved cases.
structure as smiles	Activity (%)
O=C1CCCc2c1cc1cccn1c2C(=O)c1ccccc1	67.3
N#Cc1cc2cccn2c(C(=O)c2ccccc2)c1N	26.2
COc1ccc(C(=O)c2c3c(cc4cccn24)C(=O)CCC3)cc1	67.5

P: N#Cc1cc2cccn2c(C(=O)c2ccc(OCc3ccccc3)cc2)c1N
Q: N#Cc1cc2cccn2c(C(=O)c2ccc(F)cc2)c1N
R: CCOC(=O)c1c(N)c(C#N)cc2cccn12
S: N#Cc1cc2cccn2c(C(=O)c2ccc(Cl)cc2)c1N
Hi! Can you put these in order of Activity, lowest number first? Please respond with the labels ordered as the question requires.
S, Q, R, P
(S: 13.6%, Q: 22.2%, R: 47%, P: 69.1%)

I: CCOC(=O)c1cc2cccn2c(C(=O)c2ccc(OC)cc2)c1N
II: CC(=O)c1cc2cccn2c(C(=O)c2ccc(Cl)cc2)c1C
# returns the entry with the larger Activity; inputs I and II # answer = label of selected item
I

* * *

# target entity: Catenin beta-1 (Homo sapiens) (UniProt P35222)
# Sequence (P35222 whole entry): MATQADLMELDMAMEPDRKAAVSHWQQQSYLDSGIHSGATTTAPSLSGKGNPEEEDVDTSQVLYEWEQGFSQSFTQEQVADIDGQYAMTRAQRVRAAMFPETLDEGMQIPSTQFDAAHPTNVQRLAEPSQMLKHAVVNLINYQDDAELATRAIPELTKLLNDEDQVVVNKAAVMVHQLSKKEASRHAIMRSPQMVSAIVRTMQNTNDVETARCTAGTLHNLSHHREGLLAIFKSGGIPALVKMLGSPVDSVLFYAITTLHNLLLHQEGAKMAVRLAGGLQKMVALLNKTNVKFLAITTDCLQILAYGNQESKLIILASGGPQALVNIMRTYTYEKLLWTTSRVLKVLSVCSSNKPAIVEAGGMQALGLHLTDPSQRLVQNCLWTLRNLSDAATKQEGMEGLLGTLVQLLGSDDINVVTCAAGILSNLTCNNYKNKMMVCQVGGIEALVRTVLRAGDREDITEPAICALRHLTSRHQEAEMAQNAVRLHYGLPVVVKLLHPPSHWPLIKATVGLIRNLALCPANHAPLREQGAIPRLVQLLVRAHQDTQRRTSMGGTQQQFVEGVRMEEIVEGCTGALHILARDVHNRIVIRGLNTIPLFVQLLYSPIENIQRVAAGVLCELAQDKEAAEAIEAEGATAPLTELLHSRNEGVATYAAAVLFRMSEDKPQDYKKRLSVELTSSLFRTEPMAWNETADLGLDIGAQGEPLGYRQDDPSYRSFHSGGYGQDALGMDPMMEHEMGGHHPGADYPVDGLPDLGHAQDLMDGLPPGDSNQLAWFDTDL
# assay comment: Inhibition of beta-catenin transcriptional activity in human A549 cells after 24 hrs by luciferase reporter assay
# Format: cell-based
# Parameters: concentration or dose not given beside the values
readout label: Activity (%)

structure as smiles	numeric value
Cc1c(C(=O)O)cc2cccn2c1C(=O)c1ccccc1	79.1
O=C1CCCc2c1cc1cccn1c2C(=O)c1ccc(Cl)cc1	64.5
CC(=O)c1cc2cccn2c(C(=O)c2ccccc2)c1C	90.3
O=C1CCCc2c1cc1cccn1c2C(=O)c1ccc(F)cc1	66.2
COc1ccc(C(=O)c2c(N)c(C#N)cc3cccn23)cc1	7.03

Where these numbers come from: ChEMBL document CHEMBL3745615
